For each of the compounds below, state its percent inhibition of viability.
tested on: normal primary NK cells, pool 1 (3 donors) (IL-2 2.5 ng/mL); test: percent inhibition of viability; higher = more inhibition; settings: 72 h; 250 nM;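 also: normalised to DMSO-only wells as negative and benzethonium chloride as positive control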
# output: bare number, implied unit %

Return percent inhibition of viability (reported value) for this compound: CC(C)(O)CC(=O)NCCn1ccc2ncnc(Nc3ccc(Oc4cccc(C(F)(F)F)c4)c(Cl)c3)c21 [TAK-285] (max concentration tested 2500 nM) -0.56

Read the entry Cn1cc(-c2cnn3c(N)c(Br)c([C@@H]4CCCNC4)nc23)cn1 [MK-8776] (max concentration tested 2500 nM) and write its reported percent inhibition of viability. 4.82

Please give the documented percent inhibition of viability of CCOc1ccn(-c2ccc(F)cc2)c(=O)c1C(=O)Nc1ccc(Oc2ccnc(N)c2Cl)c(F)c1 (max concentration tested 2500 nM) -11.2

Please list percent inhibition of viability recorded for the compound O=C(Nc1ccc(OC(F)(F)F)cc1)c1sccc1NCc1ccnc2ccccc12 [OSI-930] (max concentration tested 2500 nM) 1.58

Dear colleague, please send me the reported percent inhibition of viability for Cc1nc(NC(=O)N2CCC[C@H]2C(N)=O)sc1-c1ccnc(C(C)(C)C(F)(F)F)c1 [Alpelisib] (max concentration tested 2500 nM) when you can. 3.43

* * *

Would you mind telling me the reported percent inhibition of viability of each entry?
test system: YT (IL-2 2.5 ng/mL); assay: percent inhibition of viability; higher = more inhibition; conditions: 72 h; 10000 nM
Report the figure in % without appending any unit label.

Please indicate percent inhibition of viability recorded for CNC(=O)c1cc(Oc2ccc(NC(=O)Nc3ccc(Cl)c(C(F)(F)F)c3)c(F)c2)ccn1 [Regorafenib] (max concentration tested 10000 nM) 100

Find the measured percent inhibition of viability of CC(C)[C@H]1C(=O)N[C@@H](CCCNC(=N)N)C(=O)NCC(=O)N[C@@H](CC(=O)O)C(=O)N[C@H](Cc2ccccc2)C(=O)N1C [Cilengitide] (max concentration tested 10000 nM) and report it. -2.28

Give the reported value of percent inhibition of viability for this record: O=C(Nc1cccc(C(F)(F)F)c1)Nc1cc(S(=O)(=O)NC2CC2)ccc1-c1ccsc1 [AGI-6780] (max concentration tested 10000 nM) 46.9

* * *

tested on: normal primary NK cells, pool 3 (3 donors) (IL-2 2.5 ng/mL); experiment: percent inhibition of viability; higher = more inhibition; details: 72 h; 100 nM
Metric: percent inhibition of viability (%)
Give the value in % but do not write % after it.

Please indicate percent inhibition of viability recorded for Cc1cnc(Nc2ccc(OCCN3CCCC3)cc2)nc1Nc1cccc(S(=O)(=O)NC(C)(C)C)c1 [Fedratinib] (max concentration tested 10000 nM) 15.8

For the compound COc1cc2nccc(Oc3ccc(NC(=O)Nc4cc(C)on4)c(Cl)c3)c2cc1OC [Tivozanib] (max concentration tested 10000 nM) , report percent inhibition of viability. 5.07

Identify percent inhibition of viability associated with the compound CCc1cc2c(cc1N1CCC(N3CCOCC3)CC1)C(C)(C)c1[nH]c3cc(C#N)ccc3c1C2=O [Alectinib] (max concentration tested 1000 nM) -8.21

* * *

tested on: normal primary NK cells, pool 3 (3 donors) (IL-2 2.5 ng/mL); experiment: percent inhibition of viability; higher = more inhibition; conditions: 72 h; 1 nM
Record form. Attribute: percent inhibition of viability. Fill in for each entry.
State just the number; it will be interpreted in %.

Report the value of percent inhibition of viability obtained on normal primary NK cells, pool 3 (3 donors) (IL-2 2.5 ng/mL) for CC[C@H](Nc1ncnc2[nH]cnc12)c1nc2cccc(F)c2c(=O)n1-c1ccccc1 [Idelalisib] (max concentration tested 10000 nM) . -3.21

GET percent inhibition of viability where system = normal primary NK cells, pool 3 (3 donors) (IL-2 2.5 ng/mL) and item = C=CC(=O)N1CCC[C@@H](n2nc(-c3ccc(Oc4ccccc4)cc3)c3c(N)ncnc32)C1 [Ibrutinib] (max concentration tested 1000 nM) 4.6

# assay system normal primary NK cells, pool 3 (3 donors) (IL-2 2.5 ng/mL): give percent inhibition of viability of Cc1ccccc1C(C(=O)NC1CCCCC1)N(C(=O)Cn1ccnc1C)c1cccc(F)c1 (configuration not stated) [AGI-5198] (max concentration tested 10000 nM) -10

GET percent inhibition of viability where system = normal primary NK cells, pool 3 (3 donors) (IL-2 2.5 ng/mL) and item = Cn1cc(-c2ccc3nnc(C(F)(F)c4ccc5ncccc5c4)n3n2)cn1 (max concentration tested 10000 nM) -11.6

Provide percent inhibition of viability, recorded with normal primary NK cells, pool 3 (3 donors) (IL-2 2.5 ng/mL), of CN(C)C1CCN(C(=O)c2ccc(NC(=O)Nc3ccc(-c4nc(N5CCOCC5)nc(N5CCOCC5)n4)cc3)cc2)CC1 [Gedatolisib] (max concentration tested 1000 nM) -4.3

Give percent inhibition of viability for O=C(Nc1ccc(-c2ccnc(Nc3ccc(N4CCOCC4)cc3)n2)cc1)C1CCCN1 (configuration not stated) [XL019] (max concentration tested 10000 nM) tested on normal primary NK cells, pool 3 (3 donors) (IL-2 2.5 ng/mL). -1.82

Determine reported percent inhibition of viability for CC(C)[C@H]1C(=O)N[C@@H](CCCNC(=N)N)C(=O)NCC(=O)N[C@@H](CC(=O)O)C(=O)N[C@H](Cc2ccccc2)C(=O)N1C [Cilengitide] (max concentration tested 10000 nM) ; test system: normal primary NK cells, pool 3 (3 donors) (IL-2 2.5 ng/mL). -10.7

Identify measured percent inhibition of viability obtained with normal primary NK cells, pool 3 (3 donors) (IL-2 2.5 ng/mL) for CNC(=O)c1ccc(-c2cnc3ncc(Cc4ccc5ncccc5c4)n3n2)cc1F [NVP-INC280] (max concentration tested 1000 nM) . -9.7

Give measured percent inhibition of viability for C[C@]12CC[C@@H]3c4ccc(OC(=O)N(CCCl)CCCl)cc4CC[C@H]3[C@@H]1CC[C@@H]2O [Estramustine] (max concentration tested 10000 nM) (normal primary NK cells, pool 3 (3 donors) (IL-2 2.5 ng/mL)). -8.4

Report value only: percent inhibition of viability, normal primary NK cells, pool 3 (3 donors) (IL-2 2.5 ng/mL), CN1CCC(COc2cnc(-c3cccc(Cn4nc(-c5cccc(C#N)c5)ccc4=O)c3)nc2)CC1 (max concentration tested 1000 nM) -8.97

Look up and report percent inhibition of viability, with normal primary NK cells, pool 3 (3 donors) (IL-2 2.5 ng/mL) as system, for Cc1ccc(NC(=O)c2ccc(CN3CCN(C)CC3)cc2)cc1Nc1nc(-c2cccnc2)cs1 [Masitinib] (max concentration tested 10000 nM) -9.21

For normal primary NK cells, pool 3 (3 donors) (IL-2 2.5 ng/mL), give percent inhibition of viability of the listed compound: COc1cc2c(Oc3ccc4[nH]c(C)cc4c3F)ncnc2cc1OCCCN1CCCC1 [Cediranib] (max concentration tested 1000 nM) -14.2
